- studySystem: T1, HLA-DR13 (HLA-DRB1*13:01) (human)
- T1 construct: mature; purified from homozygous EBV-transformed lymphoblastoid cells with antibody L243
- testMethodNotes: competition ELISA vs biotin-B1 21-36
No end group written: not given here.
Each entry falls in a class defined on relative affinity; the bands are lo (below 6), med (6 to below 40), hi (40 or more)

// bin(item) where item = HTLAKYLMELTMLDY-NH2 [CCNB1 320-334]
med
